- Test system: Vero E6 infected with SARS-CoV-2
- method.notes: SARS-CoV-2 infection rate relative to infected DMSO; higher = more infection, active = 60 or less
- applied.conditions: 24 h
Reported SARS-CoV-2 infection rate values follow for various compounds
Your answer is read as %, so omit the unit and give the number.

Observe how each entry below is paired with its result.
[Q] Return value of SARS-CoV-2 infection rate for input CC(C)=CCC[C@](C)(O)[C@H]1CC[C@]2(C)[C@@H]1[C@H](O)C[C@@H]1[C@@]3(C)CC[C@H](O)C(C)(C)[C@@H]3[C@@H](O)C[C@]12C [hemomex-s] (10 µM) , no commentary.
[A] 104

[Q] Look up SARS-CoV-2 infection rate of CC(C)CCN1c2nc(Nc3cc(F)c(O)c(F)c3)ncc2N(C)C(=O)[C@@H]1C (0.833333 µM) and report it.
[A] 106

[Q] Query SARS-CoV-2 infection rate for O=C(CCCN1CCC(O)(c2ccc(Br)cc2)CC1)c1ccc(F)cc1 [bromperidol] (10 µM)
[A] 106

[Q] For the compound CCN(Cc1ccc(Cl)nc1)/C(=C/[N+](=O)[O-])NC [nitenpyram] (10 µM) , give its measured SARS-CoV-2 infection rate value.
[A] 101

[Q] Recall and state the measured SARS-CoV-2 infection rate for COc1ccc2[nH]c(C(=O)c3ccccc3)cc2c1 (0.833333 µM) .
[A] 110

Next:
[Q] Hello, please tell me recorded SARS-CoV-2 infection rate for this one: CC[C@@H]1C(=O)N(C)c2cnc(Nc3ccc(C(=O)N[C@H]4CC[C@H](N5CCN(CC6CC6)CC5)CC4)cc3OC)nc2N1C(C)C [volasertib] (10 µM)
[A] 104

[Q] Please look at this compound and report its SARS-CoV-2 infection rate: CCc1c2c(nc3ccc(OC(=O)N4CCC(N5CCCCC5)CC4)cc13)-c1cc3c(c(=O)n1C2)COC(=O)[C@]3(O)CC [irinotecan] (0.833333 µM)
[A] 98
